Assay target: USP7 (Homo sapiens)
Construct: USP7 catalytic domain (USP7CD) (208‐560); made in house
Sequence (Q93009 with tags, fused parts or gaps): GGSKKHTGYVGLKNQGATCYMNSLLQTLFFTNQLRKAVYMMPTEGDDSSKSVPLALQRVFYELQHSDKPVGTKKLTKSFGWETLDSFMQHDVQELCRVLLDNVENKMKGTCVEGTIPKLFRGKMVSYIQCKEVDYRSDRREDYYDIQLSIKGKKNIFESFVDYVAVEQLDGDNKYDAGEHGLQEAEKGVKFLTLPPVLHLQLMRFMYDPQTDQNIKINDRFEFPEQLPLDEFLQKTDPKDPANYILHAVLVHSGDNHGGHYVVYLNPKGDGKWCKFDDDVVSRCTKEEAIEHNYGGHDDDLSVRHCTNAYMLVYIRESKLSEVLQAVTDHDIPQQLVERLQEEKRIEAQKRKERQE
Assay: Differential scanning fluorimetry (DSF), melting temperature shift of USP7
Type: binding
Test conditions: 8 µM protein, 250 µM compound (1:31.25), 24 h incubation at 20°C
Observation type: ∆T m ± SD USP7 (°C)

Completed entries (count: 5):
>>> df
                            compound_smiles  observation_type  result_value
0  O=[N+]([O-])c1ccc(Cl)nc1Nc1cc2c(-c3ccc4ccccc4c3)cccc2cn1    ∆T m ± SD USP7          0.25
1  O=[N+]([O-])c1ccc(F)nc1Nc1cc2c(-c3ccc4ccccc4c3)cccc2cn1    ∆T m ± SD USP7          0.25
2  Cn1cc(-c2cccc3cnc(Nc4nc(Cl)ccc4[N+](=O)[O-])cc23)cn1    ∆T m ± SD USP7          0.20
3  Cn1ccc(-c2cccc3cnc(Nc4nc(Cl)ccc4[N+](=O)[O-])cc23)c1    ∆T m ± SD USP7          0.15
4  CCn1cc(-c2cccc3cnc(Nc4nc(Cl)ccc4[N+](=O)[O-])cc23)cn1    ∆T m ± SD USP7          0.15

P = O=[N+]([O-])c1ccc(F)nc1Nc1cc2c(-c3ccc(-c4cccnc4)cc3)cccc2cn1
Q = O=[N+]([O-])c1ccc(Cl)nc1Nc1cc2c(-c3ccc(-c4cccnc4)cc3)cccc2cn1
### Prompt Which value of ∆T m ± SD USP7 is numerically greater: that of P or that of Q ? Answer with the label corresponding to your selection.
### Response P
